# test_target: Cytochrome P450 2C19 (Homo sapiens)
# assay_details: Cytochrome panel assay with activity outcomes
# condition: recombinant CYP, pro-luciferin dealkylation, luminescence, p450-cyp2c19; series mostly up to 57.1 µM
Among all 16,000 compounds or so, about 5,800 (36%) were called active. Roughly 23% stayed inconclusive and do not appear here. The call rests on the fitted dose curve; in most records, active means well fitted curve in the direction sought with a large enough effect; inconclusive means small, poorly fitted or top-dose-only effect, or effect the other way; inactive means no such curve, though single readings can be large or run the other way. Some of the results follow.
Please answer using one outcome listed in active, inactive

Examples from the recorded data:
{"columns": ["compound", "qualitative_label"],
 "data": [
  ["CN(C)c1ncc2nc(-c3cccc(C#N)c3)c(=O)n(CCC#N)c2n1", "inactive"],
  ["CCN(c1ccccc1)c1cc(NC)[n+](C)c(C)n1", "inactive"],
  ["COc1ccc(CNc2ncnc3ccc(-c4ccc(N(C)C)cc4)cc23)c(OC)c1", "active"],
  ["O=C1NC(c2ccccc2)=NC1(NS(=O)(=O)c1ccccc1)C(F)(F)F (stereo unspecified)", "inactive"]
]}

-- ask Status in this test for COc1ccccc1-c1nc(NCCNC(C)=O)c2ccccc2n1 ?
-- reply inactive

-- ask Status in this test for CC(=O)OCCCN1c2ccccc2Nc2nnc(-c3ccccc3)cc21 ?
-- reply active

-- ask Status in this test for COCCn1c(=O)c(-c2cccc(C#N)c2)nc2cnc(N(C)C)nc21 ?
-- reply inactive

-- ask Status in this test for COc1ccc(N(C(=O)COc2ccccc2OC)S(=O)(=O)c2ccc(C)cc2)cc1 ?
-- reply active

-- ask Status in this test for COc1ccccc1-c1nnc(NC(C)=O)s1 ?
-- reply inactive

-- ask Status in this test for CCCCOC(=O)CSCC(=O)Nc1cc(C)on1 ?
-- reply active

-- ask Status in this test for CN(C)c1ccc(-c2cncnc2N(C)Cc2ccco2)cc1 ?
-- reply active

FYI, the data here is from PubChem BioAssay AID1851.
